Hello, the source for this data is patent US20210380680A1, in case you need it.

Hi there, I'd appreciate the recorded MFI_SNU620 (@30 ug/ml) for every entry that follows.
molecular target: T1, CLDN18.2 endogenously expressed on SNU620 gastric cancer cells (UniProt P56856-2 1-261, limits assumed); test: FACS Exp. 3, SNU620 cells
T1 construct: whole, on cells; also called SU620
Give the value in MFI but do not write MFI after it.

Query: Entry hz282-3 (antibody, V domains shown, humanized IgG; constant regions not specified) VH: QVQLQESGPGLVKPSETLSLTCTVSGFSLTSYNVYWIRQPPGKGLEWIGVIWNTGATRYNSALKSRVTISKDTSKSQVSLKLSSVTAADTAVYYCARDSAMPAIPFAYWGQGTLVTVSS VL: DIVMTQSPDSLAVSLGERATINCKSSQSLFGSVRQKNYLAWYQQKPGQPPKLLIYLASTRESGVPDRFSGSGSGTDFTLTISSLQAEDVAVYYCQQYYDIPWTFGGGTKVEIK : reported MFI_SNU620 (@30 ug/ml) = ?
Response: 1150

Query: Here is the next binder: 282A12F3 (T62A) (antibody, human IgG1, kappa, V domains shown, chimeric human IgG1, PTM site removed; also called 282A12F3-VH-NSA (T62A); 282A12 (T62A)) VH: QVQLKESGPVLVQPSQTLSLTCTVAGFSLTSYNVYWVRQPPGKGLEWMGVIWNTGATRYNSALKSRLSISKDTSKSQVFLKMNSLQTEDTATYYCARDSAMPAIPFAYWGQGTLVTVSS VL: DIVMTQSPSSLAVSAGETVTINCKSSQSLFGSVRQKNYLAWYQQKPGQSPKLLIYLASTRESGVPDRFIGSGSGTDFTLTISSVQAEDLAKYYCQQYYDIPWTFGGGTKLELKR
Response: 1520

Query: Check hz282-19 (antibody, V domains shown, humanized IgG; constant regions not specified) VH: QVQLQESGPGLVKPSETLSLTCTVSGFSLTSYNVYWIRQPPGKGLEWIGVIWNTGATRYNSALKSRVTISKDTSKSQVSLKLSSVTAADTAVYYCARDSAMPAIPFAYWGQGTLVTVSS VL: DIVMTQSPSSLSASVGDRVTINCKSSQSLFGSVRQKNYLAWYQQKPGKSPKLLIYLASTRESGVPDRFSGSGSGTDFTLTISSLQPEDFAKYYCQQYYDIPWTFGGGTKVEIK too.
Response: 1310
